Subject of test: UniProt O60603
Sequence (O60603 21-784): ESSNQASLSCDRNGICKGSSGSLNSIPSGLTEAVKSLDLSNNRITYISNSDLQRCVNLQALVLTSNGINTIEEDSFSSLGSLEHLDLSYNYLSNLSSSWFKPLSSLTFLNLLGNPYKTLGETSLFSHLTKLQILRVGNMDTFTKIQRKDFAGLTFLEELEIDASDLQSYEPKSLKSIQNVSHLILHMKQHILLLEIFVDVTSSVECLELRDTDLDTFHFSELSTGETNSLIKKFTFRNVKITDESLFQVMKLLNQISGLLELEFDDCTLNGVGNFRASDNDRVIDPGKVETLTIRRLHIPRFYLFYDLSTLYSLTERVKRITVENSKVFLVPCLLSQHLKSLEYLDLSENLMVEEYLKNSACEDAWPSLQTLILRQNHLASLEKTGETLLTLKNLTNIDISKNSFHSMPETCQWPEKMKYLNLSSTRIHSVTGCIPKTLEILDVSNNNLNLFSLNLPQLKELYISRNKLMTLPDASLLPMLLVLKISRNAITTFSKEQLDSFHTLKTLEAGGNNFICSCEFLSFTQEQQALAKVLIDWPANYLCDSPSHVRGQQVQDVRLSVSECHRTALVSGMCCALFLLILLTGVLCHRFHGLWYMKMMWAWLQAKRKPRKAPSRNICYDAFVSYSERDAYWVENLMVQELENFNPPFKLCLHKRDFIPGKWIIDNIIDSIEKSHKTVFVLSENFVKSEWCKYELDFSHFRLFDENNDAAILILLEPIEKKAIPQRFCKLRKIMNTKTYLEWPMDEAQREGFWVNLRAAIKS
Procedure summary: TLR2 agonist screening assay, HEK-Blue TLR2 reporter cell line (NF-kB-driven SEAP, absorbance at 600 nm)
Type: cell-based
Set-up: host or cells: HEK-293 (HEK-Blue TLR2 reporter cell line)
Condition: HEK-Blue TLR2 reporter cells, agonist mode; average of all runs (Table 3)
Counter-ions that a name gives are not always drawn.
EC50 values by entry

Recorded EC50, per entry:
CCCCCCNC(=O)[C@H](CNC(=O)c1ccc(C(=O)N2C[C@@H](C(=O)N[C@H]3C[C@@H]3c3ccccc3)[C@H](C(=O)N[C@H]3C[C@@H]3c3ccccc3)C2)cc1)NC(=O)CCCCCC [Compound 025]; 0.0001 to 0.05 µM
CCCCCCCCCCCCCCNC(=O)[C@@H]1CN(C(=O)c2ccc(C(=O)N3C[C@@H](C(=O)N[C@H]4C[C@@H]4c4ccccc4)[C@H](C(=O)N[C@H]4C[C@@H]4c4ccccc4)C3)cc2)C[C@H]1NC(C)=O [Compound 028]; 0.051 to 0.35 µM
CCCCCCCCCCCCCCNC(=O)[C@@H]1CN(C(=O)c2ccc(C(=O)N3C[C@@H](C(=O)N[C@H]4C[C@@H]4c4ccccc4)[C@H](C(=O)N[C@H]4C[C@@H]4c4ccccc4)C3)cc2)CCN1C [Compound 069]; 0.351 to 1 µM
CCCCCCCCCCCCCCNC(=O)CC(C)(C)NC(=O)c1ccc(C(=O)N2C[C@@H](C(=O)N[C@H]3C[C@@H]3c3ccccc3)[C@H](C(=O)N[C@H]3C[C@@H]3c3ccccc3)C2)cc1 [Compound 011]; > 1 µM
CCCCCCCCCCCCCCNC(=O)[C@H]1CN(C(=O)c2ccc(C(=O)N3C[C@@H](C(=O)N[C@H]4C[C@@H]4c4ccccc4)[C@H](C(=O)N[C@H]4C[C@@H]4c4ccccc4)C3)cc2)CCN1C [Compound 059, formate]; 0.0001 to 0.05 µM
CCCCCCCCN1CCN(C(=O)c2ccc(C(=O)N3C[C@@H](C(=O)N[C@H]4C[C@@H]4c4ccccc4)[C@H](C(=O)N[C@H]4C[C@@H]4c4ccccc4)C3)cc2)C[C@@H]1C(=O)NCCCCCC [Compound 037, formate]; 0.051 to 0.35 µM
CCCCCCCCCCCCCCNC(=O)[C@@H]1CN(C(=O)c2ccc(C(=O)N3C[C@@H](C(=O)N[C@H]4C[C@@H]4c4ccccc4)[C@H](C(=O)N[C@H]4C[C@@H]4c4ccccc4)C3)cc2)C[C@@H]1OC (single isomer, unassigned) [Compound 061]; 0.0001 to 0.05 µM
CCCCCCCC(=O)N1CCN(C(=O)c2ccc(C(=O)N3C[C@@H](C(=O)N[C@H]4C[C@@H]4c4ccccc4)[C@H](C(=O)N[C@H]4C[C@@H]4c4ccccc4)C3)cc2)C[C@H]1C(=O)NCCCCCC [Compound 030]; > 1 µM

Value of EC50 reported for the compound CCCCCCNC(=O)[C@H](CCNC(=O)CCCCCC)NC(=O)c1ccc(C(=O)N2C[C@@H](C(=O)N[C@H]3C[C@@H]3c3ccccc3)[C@H](C(=O)N[C@H]3C[C@@H]3c3ccccc3)C2)cc1 [Compound 021] is > 1 µM
